Provenance of the data: patent US11661431B2

# Test system: cryopreserved hepatocytes
# test method notes: Human hepatic stability in cryopreserved hepatocytes
# test parameters: 1×10^6 cells/mL, aliquots at 0, 1, 3 and 6 hours, LC-MS/MS
measurement type: Predicted Clearance (mL/min/kg)
Express your answer in mL/min/kg, writing the number without its unit.

Use these answered entries as a reference point.
Cc1c(-c2[nH]c3sc(C4CCN(C(=O)[C@H]5CCCN5)CC4)c(C)c3c2C(C)C)cn2ncnc2c1C
1.83
Cc1c(-c2[nH]c3sc(C4CCN(C(=O)[C@H]5COCCN5)CC4)c(C)c3c2C(C)C)cn2ncnc2c1C
4.17

Assign Predicted Clearance to the following record: Cc1c(-c2[nH]c3sc([C@H]4C[C@@H]5C[C@H]4CN5CC(N)=O)c(C)c3c2C(C)C)cn2ncnc2c1C
10.7

Identify the reported Predicted Clearance for the following entry. Cc1c(-c2[nH]c3sc([C@@H]4C[C@@H]5C[C@H]4CN5CC(N)=O)cc3c2C(C)C)cn2ncnc2c1C
13.5

Quick one: give measured Predicted Clearance for Cc1c(-c2[nH]c3sc(C4CCN(CC(N)=O)CC4)c(C)c3c2C(C)C)cn2ncnc2c1C
2.33
